- ASSAY_OVERVIEW: yeast display, Sf9 membrane polyspecificity reagent, FACS + sequencing; frameworks hold sequencing errors
READOUT_TYPE: polyreactivity (PSR sort gate)

Consider the reported polyreactivity (PSR sort gate) for these sequences:
- ENTRY_SEQUENCE: "QVQLVESGGGLVQAGGSLRLSCAASGSTFSLYDMGWYRQAPGKERELVAAIRWSGDSTYYADSVKGRFTISRDNAKNTVYLQMNSLKPEDTAVYYCAKDQSSPWDIQFLVYGGYEYWGQGTQVTVSS"
  REPORTED_VALUE: "low polyreactivity"
- ENTRY_SEQUENCE: "QVQLVESGGGFDQAGGSLRLSCAASGSIFSGYAMGWYRQAPGKETELVAAINWSGGRTYYADSVKGRFTISRDNEKNTVYLQMKSLKPEDTAVYYCAAAGARSIYRMDYWGQGTQVTVSS"
  REPORTED_VALUE: "high polyreactivity"
- ENTRY_SEQUENCE: "QVQLVESGGGLVQAGGSLRLSCDASGFTFVDYTMGWYRQAPGKERELVAAISRRGGSTYYADSVKGRFTISRANSKNTVYLQLNSLQQADTAVYYCNAYRRNYYYYQRHGYWGQCTQVTVSS"
  REPORTED_VALUE: "high polyreactivity"
- ENTRY_SEQUENCE: "QVQLVESGGGLVQAGGSLRLSCAASGSTFLRYTMGWYRQAPGTERELVAAISPSAGSTYYADSVKGRFTISRDNAKNSVYLQMNSLTPEDTAVYYCAAKRGSVSRPDYGANDESWGQGTQVTVSS"
  REPORTED_VALUE: "high polyreactivity"
- ENTRY_SEQUENCE: "QVQLVESGGGLVQAGGSLRLSCAASRSTFVLYDMGWYRPAPGKERELVAAISRSGDSTYYADSVKGRYTISRDNAKNTVYLQMNSLKPEDTAVYYCAAKRRISTGMDYWGQGTQGTVSS"
  REPORTED_VALUE: "high polyreactivity"
- ENTRY_SEQUENCE: "QVQLVESGGGLVQAGGSLRLSCAAYGSIFYYNAMGWYRQAPGKERELVAAITKSGTRTNYADSVKGRFTLSRDNAKNTVYLQMNSLKPEDTAVYYCAAEDQYYRYLFAYEYWGQGTQVTVSS"
  REPORTED_VALUE: "high polyreactivity"
- ENTRY_SEQUENCE: "QVQLVESGGGLVQAGGSLRLSCAASGSIFSRYAMGWYIQAPGKERELVAAISTGGGRTYYADSVKGRFTISRDNAKNTVYLKMNSLKPEDTAVYYCAAPQQQSWTYDGRYGYWGQGTQVTVSS"
  REPORTED_VALUE: "high polyreactivity"
- ENTRY_SEQUENCE: "QVQLVESGGGLVQAGGSLRLSCAAYGLTFYGNAMGWYRQAPGKERELVAAISRGGRTYYADSVKGRFTISRDNAKKTVYLQRNSLKPEDTAVYYCATVVSRVKQPFDMDYWGQGTQVTVSA"
  REPORTED_VALUE: "low polyreactivity"
- ENTRY_SEQUENCE: "QVQLVESGGGLVQAGGSLRLSCAASGFTFRVYAMGWYRQAPGKERELVAAITKRGGSTYYADSVKGRFTISRDNAKNTVYLQMNSLKPEDTAVYYCATENTPHYASHGYWGQGTQVTVSS"
  REPORTED_VALUE: "high polyreactivity"
- ENTRY_SEQUENCE: "QVQLVESGGGLVQAGGSLRLSCAASGRTFGRYAMGWYRQAPGKERELVAAINSGSASTYYADSVKGRFTISRDNAKNTVYLQMNSLKPEDTAVYYCAVYGYWSKSDYWGQGTQVTVSS"
  REPORTED_VALUE: "high polyreactivity"

// query State the recorded polyreactivity (PSR sort gate) for this entry: QVQLVESGGGLVQAGGSLRLSCAASGYTFRSNVMGWYRQAPGKERELVAAISRGTRTKYADSVKGRFTISRDNAKNTVYLQMNSLKPEDTAVYYCAADTGTGLDWGQGTQVTVSS
// result high polyreactivity

// query Same for QVQLVESGGGLVQAGGSLRLSCAASGITFGANAMGWYRQAPGKERELVADITWSGGDTYYADSVKGRFTISRDNAKNTVYLQMNSLKPEDTAVYYCNALQPGLGSPLGEYDYWGQGTQVTVSS
// result low polyreactivity

// query Same for QVQLVESGGGLVQAGGSLRLTCAAYGRIFRYYPMGWYRQAPGKERDLVAAINWRGTSTSYADSVKGRFTISRDIAKNTVYLQMNSLKPEETAVYYCARVAWSESDWQKMDYWGQGTQVTVSS
// result high polyreactivity
